# Test System: Renin (Homo sapiens, UniProt P00797)
# Sequence (P00797 whole entry): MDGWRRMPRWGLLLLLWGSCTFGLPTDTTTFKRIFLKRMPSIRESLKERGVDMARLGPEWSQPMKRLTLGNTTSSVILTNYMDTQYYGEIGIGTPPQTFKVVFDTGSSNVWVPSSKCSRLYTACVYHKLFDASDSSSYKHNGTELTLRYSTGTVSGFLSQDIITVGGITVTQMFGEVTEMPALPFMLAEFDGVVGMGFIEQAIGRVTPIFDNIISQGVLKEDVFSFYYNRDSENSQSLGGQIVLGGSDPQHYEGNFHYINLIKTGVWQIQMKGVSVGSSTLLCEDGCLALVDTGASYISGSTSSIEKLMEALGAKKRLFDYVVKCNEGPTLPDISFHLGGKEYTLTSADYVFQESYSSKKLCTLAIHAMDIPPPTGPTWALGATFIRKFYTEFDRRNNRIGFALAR
# Test: In vitro potency against plasma renin at a pH of 7.4
# Format: cell-free
Label key: YES means IC50 under 1000 nM; NO means IC50 of 1000 nM or more.

The examples below pair each entry with its known result.
Structure Smiles | Test System | Assigned Class
CC(C)C[C@H](O)[C@H](O)[C@H](CC1CCCCC1)NC(=O)[C@H](C)O[C@@H](Cc1ccccc1)C(=O)N1CCCCC1 | Renin (Homo sapiens, UniProt P00797) | NO
CC(C)C[C@H](O)[C@H](O)[C@H](CC1CCCCC1)NC(=O)[C@H](C)O[C@@H](Cc1ccccc1)C(=O)N1CCCC1 | Renin (Homo sapiens, UniProt P00797) | NO
CCCC[C@H](O[C@@H](Cc1ccccc1)C(=O)N1CCC(CCOC)CC1)C(=O)N[C@@H](CC1CCCCC1)[C@@H](O)[C@@H](O)CC(C)C | Renin (Homo sapiens, UniProt P00797) | NO
CCCC[C@H](O[C@@H](Cc1ccccc1)C(=O)N1CCC(SCOC)CC1)C(=O)N[C@@H](CC1CCCCC1)[C@@H](O)[C@@H](O)CC(C)C | Renin (Homo sapiens, UniProt P00797) | YES
CCCC[C@H](N[C@@H](Cc1ccccc1)C(=O)N1CCC(OCOC)CC1)C(=O)N[C@@H](CC1CCCCC1)[C@@H](O)[C@@H](O)CC(C)C | Renin (Homo sapiens, UniProt P00797) | YES

Okay, now this compound:
Lab note: IC50 threshold 1000 nM. Does this compound come in strictly under it? "CC(C)C[C@H](O)[C@H](O)[C@H](CC1CCCCC1)NC(=O)[C@H](C)O[C@@H](Cc1ccccc1)C(=O)N1CCOCC1" NO
